These entries and their values trace back to patent US20240101528A1.

# Target desc: recombinant guanylate cyclase reporter cell line (Rattus norvegicus, UniProt P20595)
# Sequence (P20595 1-619): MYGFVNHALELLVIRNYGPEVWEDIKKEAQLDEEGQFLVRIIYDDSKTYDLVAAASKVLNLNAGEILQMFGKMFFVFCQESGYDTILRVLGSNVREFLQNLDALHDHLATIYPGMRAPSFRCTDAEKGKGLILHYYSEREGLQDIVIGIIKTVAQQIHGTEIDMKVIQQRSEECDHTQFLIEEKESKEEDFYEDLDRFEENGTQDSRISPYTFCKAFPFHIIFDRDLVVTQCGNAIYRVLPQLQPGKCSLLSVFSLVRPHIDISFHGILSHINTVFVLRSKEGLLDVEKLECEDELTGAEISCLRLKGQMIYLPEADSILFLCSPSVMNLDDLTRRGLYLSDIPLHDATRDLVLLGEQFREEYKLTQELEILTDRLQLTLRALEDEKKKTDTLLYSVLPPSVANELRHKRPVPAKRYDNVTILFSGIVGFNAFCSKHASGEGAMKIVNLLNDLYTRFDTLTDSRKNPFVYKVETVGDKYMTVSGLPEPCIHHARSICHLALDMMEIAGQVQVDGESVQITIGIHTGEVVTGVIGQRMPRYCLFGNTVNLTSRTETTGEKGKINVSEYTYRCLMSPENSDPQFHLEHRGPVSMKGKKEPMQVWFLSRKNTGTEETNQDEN
# Sequence (P19686 1-690 partner): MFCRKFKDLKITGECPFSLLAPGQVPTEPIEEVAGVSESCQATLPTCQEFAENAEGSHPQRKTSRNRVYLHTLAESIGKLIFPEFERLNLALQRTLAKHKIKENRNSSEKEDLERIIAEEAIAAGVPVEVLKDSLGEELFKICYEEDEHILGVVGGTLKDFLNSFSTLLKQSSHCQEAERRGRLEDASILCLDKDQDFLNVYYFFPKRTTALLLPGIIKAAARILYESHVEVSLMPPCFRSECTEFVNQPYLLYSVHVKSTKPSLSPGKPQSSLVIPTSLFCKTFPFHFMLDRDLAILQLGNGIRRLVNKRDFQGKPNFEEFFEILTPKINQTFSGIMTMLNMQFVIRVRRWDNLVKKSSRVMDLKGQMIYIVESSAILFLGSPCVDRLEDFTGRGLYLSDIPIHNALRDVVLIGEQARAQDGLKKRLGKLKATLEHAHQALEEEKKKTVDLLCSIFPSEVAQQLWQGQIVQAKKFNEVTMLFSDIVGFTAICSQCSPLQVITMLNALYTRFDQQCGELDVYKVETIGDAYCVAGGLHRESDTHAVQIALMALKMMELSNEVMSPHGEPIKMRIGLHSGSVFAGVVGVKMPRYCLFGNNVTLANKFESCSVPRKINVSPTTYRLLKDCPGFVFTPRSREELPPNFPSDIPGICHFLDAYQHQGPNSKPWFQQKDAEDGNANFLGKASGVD
# Protocol summary: Effect on a recombinant guanylate cyclase reporter cell line
# Particulars: half maximal effective concentration
Experimental readout: EC50 (nM)

Data request: Which EC50 is listed for O=C(O)c1cnn(C2CCCN(c3cc(Cl)ccc3-c3ccc(N4CCN(CC5CC5)CC4)cc3)C2)c1C(F)F (single isomer, unassigned; enantiomer 1) [Example 10] ?
Data returned: 9.2

Data request: # lookup: EC50 of O=C(O)c1cnn(C2CCCN(c3cc(Cl)ccc3-c3ccc(N4CCN(CC5CC5F)CC4)cc3)C2)c1C(F)F (single isomer, unassigned; diastereomer 4) [Example 34]
Data returned: 3.4

Data request: Query: EC50; subject: O=C(O)c1cnn(C2CCCN(c3cc(Cl)ccc3-c3ccc(N4CCN(C5CC5)CC4)cc3)C2)c1C(F)F (single isomer, unassigned; enantiomer 2) [Example 9]
Data returned: 36.5

Data request: Endpoint output: EC50 of O=C(O)c1cnn(C2CCCN(c3cc(Cl)ccc3-c3ccc(N4CCN(CC5CC56CC6)CC4)cc3)C2)c1C(F)F (mixture of isomers) [Example 41] . Value?
Data returned: 8.3

Data request: Need EC50 of CCN1CCN(c2ccc(-c3ccc(Cl)cc3N3CCCC(n4ncc(C(=O)O)c4C(F)F)C3)cc2)CC1 (single isomer, unassigned; enantiomer 2) [Example 4] , thanks.
Data returned: 13

I = CC(=O)N1CCN(c2ccc(-c3ccc(Cl)cc3N3CCCC(n4ncc(C(=O)O)c4C(F)F)C3)cn2)CC1 (single isomer, unassigned; enantiomer 2) [Example 68]
II = CC(C)N1CCN(c2ccc(-c3ccc(Cl)cc3N3CCCC(n4ncc(C(=O)O)c4C(F)F)C3)cc2)CC1 (single isomer, unassigned; enantiomer 2) [Example 7]
Data request: Please choose the item with the lower EC50 value from this pair: I and II State your choice using its label.
Data returned: II

----------
# Protocol summary: Pharmacokinetic parameters following oral administration in rats
# Format: in vivo, male Wistar rats
# Particulars: male, Wistar, rat, plasma, read-out: t½ (converted)
Experimental readout: half-life (h)
Express your answer in h, writing the number without its unit.

Data request: Please look up its half-life: O=C(O)c1cnn(C2CCCN(c3cc(Cl)ccc3-c3ccc(N4CCN(CC(F)F)CC4)cc3)C2)c1C(F)F (single isomer, unassigned; enantiomer 2) [Example 19]
Data returned: 4.65

----------
# Target desc: recombinant guanylate cyclase reporter cell line (Rattus norvegicus, UniProt P20595)
# Construct: expressed in transfected cells
# Protocol summary: Effect on a recombinant guanylate cyclase reporter cell line
# Format: cell-based
# Particulars: minimum effective concentration
Experimental readout: MEC (nM)

Answered examples (5):
Data request: Consider the molecule shown here: O=C(O)c1cnn(C2CCCN(c3cc(Cl)ccc3-c3ccc(C4CN(CCC(F)(F)F)C4)cc3)C2)c1C(F)F (single isomer, unassigned; enantiomer 2) What is its recorded MEC?
Data returned: 3.0

Data request: I'd like to know its MEC. The molecule in question is O=C(O)c1cnn(C2CCCN(c3cc(Cl)ccc3-c3ccc(N4CCN(CC5CC5C(F)(F)F)CC4)cc3)C2)c1C(F)F (mixture of isomers) [Example 39]
Data returned: 1.0

Data request: # query: MEC of entry O=C(O)c1cnn(C2CCCN(c3cc(Cl)ccc3-c3ccc(N4CCN(CC(F)F)CC4)cc3)C2)c1C(F)F (single isomer, unassigned; enantiomer 2) [Example 19]
Data returned: 0.3

Data request: So what's the measured MEC for this one? CCN1CCN(c2ccc(-c3ccc(C(F)(F)F)cc3N3CCCC(n4ncc(C(=O)O)c4C(F)F)C3)cc2)CC1 (single isomer, unassigned; enantiomer 1) [Example 73]
Data returned: 10.0

Data request: // MEC lookup, key: CCN1CCN(c2ccc(-c3ccc(Cl)cc3N3CCCC(n4ncc(C(=O)O)c4C(F)F)C3)cc2)CC1 (single isomer, unassigned; enantiomer 1) [Example 3]
Data returned: 3.0

1 = CC(C)CN1CCN(c2ccc(-c3ccc(Cl)cc3N3CC(n4ncc(C(=O)O)c4C(F)F)CC(F)(F)C3)cc2)CC1 (single isomer, unassigned; enantiomer 2) [Example 55]
2 = O=C(O)c1cnn(C2CCCN(c3cc(Cl)ccc3-c3ccc(N4CCN(CC(F)F)CC4)cc3)C2)c1C(F)F (single isomer, unassigned; enantiomer 1) [Example 18]
Data request: Please state the entry with greater MEC among 1 and 2 . Mark your answer with the label of the selected entry.
Data returned: 1
(1: 10.0 nM, 2: 0.3 nM)

----------
# Target desc: recombinant guanylate cyclase reporter cell line (Rattus norvegicus, UniProt P20595)
# Construct: expressed in transfected cells
# Protocol summary: Effect on a recombinant guanylate cyclase reporter cell line
# Format: cell-based
# Particulars: half maximal effective concentration
# Experimental: B-1. Effect on a Recombinant Guanylate Cyclase Reporter Cell Line The cellular activity of the compounds according to the invention was determined using a recombinant guanylate cyclase reporter cell line, as described in F. Wunder et al., Anal. Biochem. 339, 104-112 (2005).
pEC50: −log10 of the molar value.
Experimental readout: pEC50

In the examples that follow, each entry is paired with its recorded pEC50.
Data request: Record request: pEC50 value, item CCN1CCN(c2ccc(-c3ccc(Cl)cc3N3CC(n4ncc(C(=O)O)c4C(F)F)CC(F)(F)C3)cc2)CC1 (single isomer, unassigned; enantiomer 2)
Data returned: 7.47

Data request: Name the reported pEC50 value associated with the molecule CC(C)(F)C(=O)N1CCN(c2ccc(-c3ccc(Cl)cc3N3CCCC(n4ncc(C(=O)O)c4C(F)F)C3)cc2)CC1 (single isomer, unassigned; enantiomer 2)
Data returned: 7.86

Data request: What does the data say about its pEC50? Entry: O=C(O)c1cnn(C2CCCN(c3cc(Cl)ccc3-c3ccc(N4CCN(C[C@H]5C[C@H]5F)CC4)cc3)C2)c1C(F)F (single isomer, unassigned; stereoisomer 2)
Data returned: 8.68

Data request: Request the reported pEC50 associated with CCC(=O)N1CCC(c2ccc(-c3ccc(Cl)cc3N3CCCC(n4ncc(C(=O)O)c4C(F)F)C3)cc2)CC1 (single isomer, unassigned; enantiomer 2)
Data returned: 8.82

Data request: Look up pEC50: CC(F)(F)CN1CCN(c2ccc(-c3ccc(Cl)cc3N3CCCC(n4ncc(C(=O)O)c4C(F)F)C3)cc2)CC1 (single isomer, unassigned; enantiomer 1) [Example 24]
Data returned: 8.74

A = O=C(O)c1cnn(C2CCCN(c3cc(Cl)ccc3-c3ccc(N4CCN(CC5CC5(F)F)CC4)cc3)C2)c1C(F)F (single isomer, unassigned; diastereomer 2) [Example 29]
B = O=C(O)c1cnn(C2CCCN(c3cc(Cl)ccc3-c3ccc(N4CCN(CC5CC(F)(F)C5)CC4)cc3)C2)c1C(F)F (single isomer, unassigned; enantiomer 1)
C = CC(C)N1CCN(c2ccc(-c3ccc(Cl)cc3N3CCCC(n4ncc(C(=O)O)c4C(F)F)C3)cc2)CC1 (single isomer, unassigned; enantiomer 2) [Example 6]
D = O=C(O)c1cnn(C2CCCN(c3cc(Cl)ccc3-c3ccc(N4CCN(CC5CC5C(F)(F)F)CC4)cc3)C2)c1C(F)F (mixture of isomers) [Example 39]
Data request: Order field: pEC50 | Direction: descending (largest first) Reply with the item labels sorted in the order that was asked for.
Data returned: A, B, D, C
(A: 8.70, B: 8.17, D: 7.84, C: 7.47)
